For each record, write down the corresponding normalized SmoIP GFP fluorescence.
test system: Drosophila S2 cl14 SmoIP sensor cells; assay: normalized SmoIP GFP fluorescence (untreated unstimulated = 0%, untreated Hh-stimulated = 100%); higher = more Smo activation sensor fluorescence; conditions: stimulation: Hh conditioned medium (+Hh); compound concentration: 2 uM; 24 h;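 note: flow cytometry read-out as median GFP intensity of gated cells, compounds added 30 min before Hh-conditioned or mock medium, mock-treated cells serving as unstimulated baseline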
Counter-ions that a name gives are not always drawn.
State the answer as a number, implicitly in %.

Provide only the value of recorded normalized SmoIP GFP fluorescence for "Cc1ccc(C(=O)N(CCCN)[C@@H](c2oc3cc(Cl)ccc3c(=O)c2Cc2ccccc2)C(C)C)cc1"
141

Provide only the value of recorded normalized SmoIP GFP fluorescence for "Cc1ccc(C(=O)Nc2cccc(C(F)(F)F)c2)cc1Nc1nc(-c2cccnc2)nc2c1cnn2C"
140

Provide only the value of recorded normalized SmoIP GFP fluorescence for CC(C)(C#N)c1cc(Cn2cncn2)cc(C(C)(C)C#N)c1 [Anastrozole]
109

Provide only the value of recorded normalized SmoIP GFP fluorescence for C[C@@H]1C[C@H]2[C@@H]3CCC4=CC(=O)C=C[C@]4(C)[C@@]3(F)[C@@H](O)C[C@]2(C)[C@@]1(O)C(=O)CO [Dexamethasone]
86.8

Provide only the value of recorded normalized SmoIP GFP fluorescence for "CN(C)Cc1ccc(-c2nc3cccc4c3n2CCNC4=O)cc1"
120

Provide only the value of recorded normalized SmoIP GFP fluorescence for COc1ccc(COc2cc3oc(=O)c4cc(C(C)O)ccc4c3cc2OC)cc1 (centres undefined) [Palomid-529-P529]
134

Provide only the value of recorded normalized SmoIP GFP fluorescence for "CCc1c(O)cc(O)c(C(=O)c2ccc(OCCN3CCOCC3)c(OC)c2)c1CC(=O)N(CCOC)CCOC"
121

Provide only the value of recorded normalized SmoIP GFP fluorescence for "CC(C)C[C@H](NC(=O)CNC(=O)c1cc(Cl)ccc1Cl)B(O)O"
82.1

Provide only the value of recorded normalized SmoIP GFP fluorescence for CN1CCN2c3ccccc3Cc3ccccc3C2C1 (centres undefined) [Mianserin-hydrochloride]
115

Provide only the value of recorded normalized SmoIP GFP fluorescence for "COc1ccc(CCc2nc3cc(-c4c(C)noc4C)ccc3n2C[C@H](C)N2CCOCC2)cc1Cl"
144

Provide only the value of recorded normalized SmoIP GFP fluorescence for Cc1c(-c2ccccc2)oc2c(C(=O)OCCN3CCCCC3)cccc2c1=O [flavoxate-hcl]
106

Provide only the value of recorded normalized SmoIP GFP fluorescence for "CC(C)c1noc(N2CCC(COc3ccc(-c4ccc(S(C)(=O)=O)cc4)nc3)CC2)n1"
110

Provide only the value of recorded normalized SmoIP GFP fluorescence for Nc1nc(=O)n([C@@H]2CS[C@H](CO)O2)cc1F [Emtricitabine]
111

Provide only the value of recorded normalized SmoIP GFP fluorescence for Nc1nccc2c1ncn2[C@@H]1C=C(CO)[C@@H](O)[C@H]1O [3-deazaneplanocin-a-dznep]
142

Provide only the value of recorded normalized SmoIP GFP fluorescence for COC(=O)C1=C(C)NC(C)=C(C(=O)OC2CCCN(Cc3ccccc3)C2)C1c1cccc([N+](=O)[O-])c1 (centres undefined) [benidipine-hydrochloride]
89.9

Provide only the value of recorded normalized SmoIP GFP fluorescence for "CS(=O)(=O)c1ccc(-c2cnc(N)c(C(=O)Nc3ccccc3)n2)cc1"
232

Provide only the value of recorded normalized SmoIP GFP fluorescence for "N#Cc1c(Oc2ccc(F)c(NC(=O)Cc3cccc(C(F)(F)F)c3)c2)ccc2nc(NC(=O)C3CC3)sc12"
126

Provide only the value of recorded normalized SmoIP GFP fluorescence for CN[C@H]1CC[C@@H](c2ccc(Cl)c(Cl)c2)c2ccccc21 [sertraline-hcl]
108

Provide only the value of recorded normalized SmoIP GFP fluorescence for "CC1(C)CC(=O)c2c(C(F)(F)F)nn(-c3ccc(C(N)=O)c(N[C@H]4CC[C@H](OC(=O)CN)CC4)c3)c2C1"
233

Provide only the value of recorded normalized SmoIP GFP fluorescence for "CCCS(=O)(=O)Nc1ccc(F)c(C(=O)c2c[nH]c3ncc(Cl)cc23)c1F"
108

Provide only the value of recorded normalized SmoIP GFP fluorescence for CC(=O)O[C@H]1CC[C@@]2(C)C(=CCC3C2CC[C@]2(C)C(c4cccnc4)=CCC32)C1 (some centres undefined) [Abiraterone-Acetate-CB7630]
106

Provide only the value of recorded normalized SmoIP GFP fluorescence for CN1[C@@H]2CC[C@H]1C[C@@H](OC(=O)c1c[nH]c3ccccc13)C2 [Tropisetron-hydrochloride]
116

Provide only the value of recorded normalized SmoIP GFP fluorescence for COc1ccccc1N1CCN(CCCNc2cc(=O)n(C)c(=O)n2C)CC1 [urapidil-hydrochloride]
110

Provide only the value of recorded normalized SmoIP GFP fluorescence for CC(C)c1nc(CN(C)C(=O)N[C@H](C(=O)N[C@@H](Cc2ccccc2)C[C@H](O)[C@H](Cc2ccccc2)NC(=O)OCc2cncs2)C(C)C)cs1 [Ritonavir]
109

Provide only the value of recorded normalized SmoIP GFP fluorescence for "CCCCOc1c(C(=O)c2c(F)cc(C)cc2F)c[nH]c2nncc1-2"
138

Provide only the value of recorded normalized SmoIP GFP fluorescence for Nc1nc(N)c2nc(-c3ccccc3)c(N)nc2n1 [triamterene]
104

Provide only the value of recorded normalized SmoIP GFP fluorescence for COc1ccc2cccc(CCNC(C)=O)c2c1 [Agomelatine]
102

Provide only the value of recorded normalized SmoIP GFP fluorescence for C[C@@H](NCCc1ccc(O)cc1)[C@@H](O)c1ccc(O)cc1 [Ritodrine-hydrochloride-Yutopar]
144

Provide only the value of recorded normalized SmoIP GFP fluorescence for CN1CCN(c2ccc3nc(-c4c(N)c5c(F)cccc5[nH]c4=O)[nH]c3c2)CC1 [dovitinib]
240

Provide only the value of recorded normalized SmoIP GFP fluorescence for O=C(/C=C/c1cccc(S(=O)(=O)Nc2ccccc2)c1)NO [Belinostat]
189

Provide only the value of recorded normalized SmoIP GFP fluorescence for COc1cc2c(cc1OC)CC(=O)N(CCCN(C)C[C@@H]1Cc3cc(OC)c(OC)cc31)CC2 [ivabradine-hcl-procoralan]
111

Provide only the value of recorded normalized SmoIP GFP fluorescence for "CN(C)Cc1cccc(N/C(=C2\C(=O)Nc3cc(C(N)=O)ccc32)c2ccccc2)c1"
103

Provide only the value of recorded normalized SmoIP GFP fluorescence for "CNCc1ccc(-c2[nH]c3cc(F)cc4c3c2CCNC4=O)cc1"
115

Provide only the value of recorded normalized SmoIP GFP fluorescence for "COCCOc1ccc2c(c1)ncn2-c1ccc2cccc(N3CCC(N)CC3)c2n1"
264
